biological target: ERBB4 (human) (UniProt Q15303); assay: radiometric filter-binding kinase assay; settings: compound 0.1 µM
Sequence (Q15303 whole entry, looked up): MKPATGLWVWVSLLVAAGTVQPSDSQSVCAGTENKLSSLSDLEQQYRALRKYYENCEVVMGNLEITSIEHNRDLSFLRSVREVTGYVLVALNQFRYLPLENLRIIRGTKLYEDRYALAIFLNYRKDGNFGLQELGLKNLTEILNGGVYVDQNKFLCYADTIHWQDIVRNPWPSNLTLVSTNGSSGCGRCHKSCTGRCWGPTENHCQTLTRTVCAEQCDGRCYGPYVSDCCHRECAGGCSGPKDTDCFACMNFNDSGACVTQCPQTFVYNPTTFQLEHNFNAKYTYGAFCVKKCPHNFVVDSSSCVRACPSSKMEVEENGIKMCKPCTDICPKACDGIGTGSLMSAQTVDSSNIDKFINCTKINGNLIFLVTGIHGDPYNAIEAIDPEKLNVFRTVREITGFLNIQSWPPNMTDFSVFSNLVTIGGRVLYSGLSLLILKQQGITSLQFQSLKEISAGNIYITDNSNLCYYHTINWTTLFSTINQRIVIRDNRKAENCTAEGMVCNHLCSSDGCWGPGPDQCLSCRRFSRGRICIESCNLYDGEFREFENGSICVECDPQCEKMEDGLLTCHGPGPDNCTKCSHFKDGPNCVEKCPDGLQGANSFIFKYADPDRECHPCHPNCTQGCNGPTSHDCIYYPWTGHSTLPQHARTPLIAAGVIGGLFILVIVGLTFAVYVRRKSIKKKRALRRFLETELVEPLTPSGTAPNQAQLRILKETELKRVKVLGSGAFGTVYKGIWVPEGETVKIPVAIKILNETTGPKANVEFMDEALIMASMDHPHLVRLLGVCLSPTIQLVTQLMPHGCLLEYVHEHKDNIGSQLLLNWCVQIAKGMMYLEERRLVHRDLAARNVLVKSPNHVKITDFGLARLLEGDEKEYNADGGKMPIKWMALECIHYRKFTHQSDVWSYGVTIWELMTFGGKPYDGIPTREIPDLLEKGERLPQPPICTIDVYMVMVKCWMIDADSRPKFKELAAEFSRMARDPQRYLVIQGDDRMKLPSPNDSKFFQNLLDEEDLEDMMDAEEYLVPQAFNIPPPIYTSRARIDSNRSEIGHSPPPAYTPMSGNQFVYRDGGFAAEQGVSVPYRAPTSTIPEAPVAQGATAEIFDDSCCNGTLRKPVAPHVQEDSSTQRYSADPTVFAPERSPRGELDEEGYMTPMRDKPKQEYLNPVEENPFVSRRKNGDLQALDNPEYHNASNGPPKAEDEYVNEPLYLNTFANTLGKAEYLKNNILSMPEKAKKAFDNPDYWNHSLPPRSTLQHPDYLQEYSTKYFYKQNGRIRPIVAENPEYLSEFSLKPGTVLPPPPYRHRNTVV
REPORTED PROPERTY: residual activity (%)

[[record]]
cpd_smiles = "Cc1ccc(-c2ccc3c(ccc4sc5c(c43)NC[C@@H](C)NC5=O)n2)cn1"
unit_abbreviation = "%"
numeric_value = 92

[[record]]
cpd_smiles = "CCn1c(-c2nonc2N)nc2cncc(CNC3CCNCC3)c21"
unit_abbreviation = "%"
numeric_value = 112

[[record]]
cpd_smiles = "CCCCCc1ccc(/C=C/[C@H](O)[C@@H](CO)NC)cc1"
unit_abbreviation = "%"
numeric_value = 127

[[record]]
cpd_smiles = "CNc1nc(-c2ccc3c(N)n[nH]c3c2)cc(N2C[C@@H](C(=O)NC3CCCCC3)CC[C@H]2C)n1"
unit_abbreviation = "%"
numeric_value = 107


====

biological target: YES1 (human); experiment: radiometric filter-binding kinase assay; details: compound 1.0 µM
REPORTED PROPERTY: residual activity (%)

Recorded results for 4 compounds are shown here.
[[record]]
compound = "O=C(Nc1nc2cc(C(F)(F)F)cc(NC3CC3)n2n1)c1cccnc1"
numeric_value = 74

[[record]]
compound = "Cc1cc(NC(=O)c2cccc(NC(=O)/C=C/CN(C)C)c2)ccc1Nc1nccc(-c2cccnc2)n1"
numeric_value = 39

[[record]]
compound = "O=C(NOCC(O)CO)c1ccc(F)c(F)c1Nc1ccc(I)cc1Cl (stereo not given)"
numeric_value = 76

[[record]]
compound = "Cc1cccc(-c2nn(C(=S)Nc3ccccc3)cc2-c2ccnc3ccccc23)n1"
numeric_value = 70


1 = NC(=O)c1cc2c(-c3cccc(-c4ccccc4)c3)cnc(N)c2s1
2 = CNc1nc(-c2ccc3c(N)n[nH]c3c2)cc(N2C[C@@H](C(=O)NC3CCCCC3)CC[C@H]2C)n1
3 = C=CC(=O)N1CCC[C@@H](n2nc(-c3ccc(Oc4ccccc4)cc3)c3c(N)ncnc32)C1
4 = COc1ccc(-n2ncc3cnc(Nc4cc(OC)c(OC)c(OCCCN5CCN(C)CC5)c4)nc32)cc1
[in] With regard to residual activity, arrange the entries in ascending order, please. To answer, arrange all of the labels according to the requested order.
[out] 4, 3, 1, 2

P = NCC(=O)Nc1ccc(-n2nc(C(F)(F)F)cc2-c2ccc3c(ccc4ccccc43)c2)cc1
Q = Oc1ccc2ccccc2c1SSc1c(O)ccc2ccccc12
[in] For the pair P and Q , which member has the lower residual activity number? // output: label of the selected item
[out] Q

====

target: PAK6 (human); assay: radiometric filter-binding kinase assay; settings: compound 1.0 µM
REPORTED PROPERTY: residual activity (%)

[[record]]
cpd_smiles = "COc1ccc(N(C(=O)Nc2c(C)cccc2C)c2cc(Nc3ccc(N4CCN(C)CC4)cc3)ncn2)c(OC)c1"
unit_abbreviation = "%"
numeric_value = 88

[[record]]
cpd_smiles = "Oc1ccc(/C=C/c2cc(O)cc(O)c2)cc1"
unit_abbreviation = "%"
numeric_value = 108

[[record]]
cpd_smiles = "FC(F)(F)c1ccc(-c2ccc(Oc3cncc4sc(-c5nn[nH]n5)cc34)cc2)cc1"
unit_abbreviation = "%"
numeric_value = 121


====

target: UniProtKB O60285; test: radiometric filter-binding kinase assay; conditions: compound 1.0 µM
Sequence (O60285 whole entry, looked up): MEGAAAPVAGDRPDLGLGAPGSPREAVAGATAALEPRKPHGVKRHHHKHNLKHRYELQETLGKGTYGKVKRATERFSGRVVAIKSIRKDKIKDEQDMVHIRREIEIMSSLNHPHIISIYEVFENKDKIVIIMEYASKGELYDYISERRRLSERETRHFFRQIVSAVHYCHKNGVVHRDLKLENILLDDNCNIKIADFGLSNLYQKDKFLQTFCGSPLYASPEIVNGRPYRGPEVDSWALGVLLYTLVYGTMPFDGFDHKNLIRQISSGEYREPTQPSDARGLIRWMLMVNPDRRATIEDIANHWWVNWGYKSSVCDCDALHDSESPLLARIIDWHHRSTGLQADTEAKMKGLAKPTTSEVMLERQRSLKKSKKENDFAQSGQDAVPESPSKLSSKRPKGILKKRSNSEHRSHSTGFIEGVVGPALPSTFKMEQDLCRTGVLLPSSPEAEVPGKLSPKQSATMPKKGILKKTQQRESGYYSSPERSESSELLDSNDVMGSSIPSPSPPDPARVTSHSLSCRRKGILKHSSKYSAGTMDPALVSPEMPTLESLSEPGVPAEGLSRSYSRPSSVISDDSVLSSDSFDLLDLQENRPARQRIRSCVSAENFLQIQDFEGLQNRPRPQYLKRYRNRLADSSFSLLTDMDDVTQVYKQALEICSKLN
REPORTED PROPERTY: residual activity (%)

Recorded results for 8 compounds are shown here.
[[record]]
compound = "O=C(N[C@@H](COc1ccc2[nH]c(=O)[nH]c2c1)c1ccccc1)c1cccn(Cc2ccc(F)c(F)c2)c1=O"
reported_property = "residual activity"
numeric_value = 107

[[record]]
compound = "NS(=O)(=O)OC[C@@H]1C[C@@H](n2ccc3c(N[C@H]4CCc5ccccc54)ncnc32)C[C@@H]1O"
reported_property = "residual activity"
numeric_value = 98

[[record]]
compound = "O=C(O)c1cc(N=Nc2ccc(S(=O)(=O)Nc3ccccn3)cc2)ccc1O"
reported_property = "residual activity"
numeric_value = 107

[[record]]
compound = "CN1C(=O)[C@@H](Cc2c[nH]c3ccccc23)NC1=S"
reported_property = "residual activity"
numeric_value = 108

[[record]]
compound = "Cc1ccc(-c2ccc3c(ccc4sc5c(c43)NC[C@@H](C)NC5=O)n2)cn1"
reported_property = "residual activity"
numeric_value = 102

[[record]]
compound = "Cc1nc(-c2ccc(OCC(C)C)c(C#N)c2)sc1C(=O)O"
reported_property = "residual activity"
numeric_value = 95

[[record]]
compound = "CCn1c(-c2nonc2N)nc2cncc(CNC3CCNCC3)c21"
reported_property = "residual activity"
numeric_value = 91

[[record]]
compound = "NCC(=O)Nc1ccc(-n2nc(C(F)(F)F)cc2-c2ccc3c(ccc4ccccc43)c2)cc1"
reported_property = "residual activity"
numeric_value = 85


A = CN(C)C/C=C/C(=O)Nc1cccc(C(=O)Nc2ccc(Nc3nccc(-c4cccnc4)n3)cc2)c1
B = CC1=C(CO)C(=O)O[C@@H]([C@@H](C)[C@H]2CC[C@H]3[C@@H]4C[C@H]5O[C@]56[C@@H](O)C=CC(=O)[C@]6(C)C4CC[C@]23C)C1 (stereo partly specified)
C = O=c1c(O)c(-c2ccc(O)c(O)c2)oc2cc(O)c(O)c(O)c12
[in] With regard to residual activity, arrange the entries in ascending order, please. To answer, arrange all of the labels according to the requested order.
[out] C, A, B
(C: 33%, A: 82%, B: 121%)

====

biological target: UniProt:Q9Y2K2; experiment: radiometric filter-binding kinase assay; conditions: compound 0.1 µM
Sequence (Q9Y2K2 whole entry, looked up): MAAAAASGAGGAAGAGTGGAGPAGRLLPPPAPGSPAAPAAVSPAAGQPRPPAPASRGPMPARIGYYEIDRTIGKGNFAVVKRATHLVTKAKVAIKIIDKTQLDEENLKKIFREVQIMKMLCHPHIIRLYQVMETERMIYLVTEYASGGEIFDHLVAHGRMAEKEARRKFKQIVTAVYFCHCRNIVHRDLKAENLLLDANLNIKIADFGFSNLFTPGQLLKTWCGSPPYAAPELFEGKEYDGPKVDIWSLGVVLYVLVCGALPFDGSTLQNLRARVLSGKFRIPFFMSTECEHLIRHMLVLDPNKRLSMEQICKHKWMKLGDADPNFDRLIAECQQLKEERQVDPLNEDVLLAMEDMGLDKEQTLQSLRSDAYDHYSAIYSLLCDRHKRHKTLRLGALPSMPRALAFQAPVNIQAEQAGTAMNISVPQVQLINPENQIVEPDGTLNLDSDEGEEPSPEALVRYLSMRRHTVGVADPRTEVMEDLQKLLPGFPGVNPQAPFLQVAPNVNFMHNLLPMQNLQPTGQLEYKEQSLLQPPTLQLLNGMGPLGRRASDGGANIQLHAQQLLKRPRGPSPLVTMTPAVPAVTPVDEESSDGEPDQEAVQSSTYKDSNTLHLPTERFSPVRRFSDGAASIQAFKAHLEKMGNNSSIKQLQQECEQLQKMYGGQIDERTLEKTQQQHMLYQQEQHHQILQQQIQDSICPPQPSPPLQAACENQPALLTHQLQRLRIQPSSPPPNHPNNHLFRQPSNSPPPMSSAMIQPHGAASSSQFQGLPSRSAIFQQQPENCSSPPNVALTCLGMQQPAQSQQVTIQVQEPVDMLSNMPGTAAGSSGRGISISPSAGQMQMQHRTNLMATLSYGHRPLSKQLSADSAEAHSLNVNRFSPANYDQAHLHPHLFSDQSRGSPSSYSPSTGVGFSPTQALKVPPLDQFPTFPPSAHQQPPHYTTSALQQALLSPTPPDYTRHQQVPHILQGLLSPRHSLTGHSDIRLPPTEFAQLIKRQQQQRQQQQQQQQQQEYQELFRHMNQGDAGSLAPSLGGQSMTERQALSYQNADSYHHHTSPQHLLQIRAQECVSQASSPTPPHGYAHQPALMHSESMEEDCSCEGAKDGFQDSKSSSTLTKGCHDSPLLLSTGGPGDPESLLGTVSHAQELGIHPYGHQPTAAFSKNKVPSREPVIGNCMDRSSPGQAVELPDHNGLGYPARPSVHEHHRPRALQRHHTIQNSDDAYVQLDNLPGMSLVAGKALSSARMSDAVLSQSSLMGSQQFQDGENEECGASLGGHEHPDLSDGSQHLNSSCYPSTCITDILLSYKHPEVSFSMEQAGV
REPORTED PROPERTY: residual activity (%)

[[record]]
molecule = "CCn1c(-c2nonc2N)nc2cncc(CNC3CCNCC3)c21"
measurement_target = "UniProt:Q9Y2K2"
reported_property = "residual activity"
numeric_value = 89

[[record]]
molecule = "Cc1cc(NC(=O)c2cccc(NC(=O)/C=C/CN(C)C)c2)ccc1Nc1nccc(-c2cccnc2)n1"
measurement_target = "UniProt:Q9Y2K2"
reported_property = "residual activity"
numeric_value = 88

[[record]]
molecule = "Cc1ccc(-c2ccc3c(ccc4sc5c(c43)NC[C@@H](C)NC5=O)n2)cn1"
measurement_target = "UniProt:Q9Y2K2"
reported_property = "residual activity"
numeric_value = 98

[[record]]
molecule = "COc1cc(O)c2c(c1)[C@H]1OC1C[C@H](O)[C@H](O)C(=O)/C=C\\C[C@H](C)OC2=O (some centres undefined)"
measurement_target = "UniProt:Q9Y2K2"
reported_property = "residual activity"
numeric_value = 93


====

biological target: PIM1 (human) (UniProt P11309); assay: radiometric filter-binding kinase assay; conditions: compound 1.0 µM
Sequence (P11309 whole entry, looked up): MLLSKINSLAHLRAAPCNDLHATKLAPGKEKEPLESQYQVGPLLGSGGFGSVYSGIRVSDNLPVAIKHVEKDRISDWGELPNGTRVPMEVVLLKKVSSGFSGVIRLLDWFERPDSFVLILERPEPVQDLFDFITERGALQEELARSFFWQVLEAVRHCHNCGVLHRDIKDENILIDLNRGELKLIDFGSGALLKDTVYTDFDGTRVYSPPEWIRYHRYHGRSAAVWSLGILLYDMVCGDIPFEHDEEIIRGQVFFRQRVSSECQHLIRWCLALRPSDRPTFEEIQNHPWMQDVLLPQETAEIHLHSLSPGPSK
REPORTED PROPERTY: residual activity (%)

[[record]]
compound = "NCC(=O)Nc1ccc(-n2nc(C(F)(F)F)cc2-c2ccc3c(ccc4ccccc43)c2)cc1"
reported_property = "residual activity"
numeric_value = 92

[[record]]
compound = "O=C(NOC[C@H](O)CO)c1ccc(F)c(F)c1Nc1ccc(I)cc1Cl"
reported_property = "residual activity"
numeric_value = 92

[[record]]
compound = "O=C(N[C@@H](COc1ccc2[nH]c(=O)[nH]c2c1)c1ccccc1)c1cccn(Cc2ccc(F)c(F)c2)c1=O"
reported_property = "residual activity"
numeric_value = 105

[[record]]
compound = "COc1cc(O)c2c(c1)[C@H]1OC1C[C@H](O)[C@H](O)C(=O)/C=C\\C[C@H](C)OC2=O (stereo not given in full)"
reported_property = "residual activity"
numeric_value = 92

[[record]]
compound = "COc1ccc(N(C(=O)Nc2c(C)cccc2C)c2cc(Nc3ccc(N4CCN(C)CC4)cc3)ncn2)c(OC)c1"
reported_property = "residual activity"
numeric_value = 111


====

tested on: SGK1 (human), O00141 [S422D]; experiment: radiometric filter-binding kinase assay; conditions: compound 10.0 µM
Sequence (O00141 whole entry S422D, looked up): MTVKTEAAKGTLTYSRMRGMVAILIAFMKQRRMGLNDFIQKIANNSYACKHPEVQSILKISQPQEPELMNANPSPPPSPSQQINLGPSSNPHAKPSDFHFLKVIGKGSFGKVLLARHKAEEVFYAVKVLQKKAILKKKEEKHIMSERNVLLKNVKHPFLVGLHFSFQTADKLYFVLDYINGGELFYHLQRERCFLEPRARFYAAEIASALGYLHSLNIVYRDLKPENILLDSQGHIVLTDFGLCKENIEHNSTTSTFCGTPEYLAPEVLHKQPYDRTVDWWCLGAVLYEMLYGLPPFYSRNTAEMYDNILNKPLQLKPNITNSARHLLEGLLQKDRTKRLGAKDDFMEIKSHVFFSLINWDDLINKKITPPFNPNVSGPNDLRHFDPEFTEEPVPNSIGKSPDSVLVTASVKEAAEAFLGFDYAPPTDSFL
REPORTED PROPERTY: residual activity (%)

Recorded results for 3 molecules are shown here.
[[record]]
cpd_smiles = "Cc1cc(SCc2sc(-c3ccc(C(F)(F)F)cc3)nc2C)ccc1OCC(=O)O"
measurement_target = "SGK1 (human), O00141 [S422D]"
reported_property = "residual activity"
unit_abbreviation = "%"
numeric_value = 109

[[record]]
cpd_smiles = "NC(=O)c1c(NC(=O)C2CC2)sc2c1CCCC2"
measurement_target = "SGK1 (human), O00141 [S422D]"
reported_property = "residual activity"
unit_abbreviation = "%"
numeric_value = 107

[[record]]
cpd_smiles = "NC(=O)c1ccc(-c2ccc(Oc3cncc4sc(-c5nn[nH]n5)cc34)cc2)cc1"
measurement_target = "SGK1 (human), O00141 [S422D]"
reported_property = "residual activity"
unit_abbreviation = "%"
numeric_value = 68


P = Oc1ccc2ccccc2c1SSc1c(O)ccc2ccccc12
Q = COc1cc(C(=O)N2CCOCC2)c(F)cc1Nc1ncc(C(F)(F)F)c(NC2CC2)n1
[in] Which of the two gives a bigger number for residual activity: P or Q ? // output: label of the selected item
[out] P
(P: 107%, Q: 70%)
